Examples of binders with documented binding signal follow.
# ASSAYED_SYSTEM: T1, UNK ZnF1-3 (human, UniProt Q9C0B0 31-174)
# T1 sequence: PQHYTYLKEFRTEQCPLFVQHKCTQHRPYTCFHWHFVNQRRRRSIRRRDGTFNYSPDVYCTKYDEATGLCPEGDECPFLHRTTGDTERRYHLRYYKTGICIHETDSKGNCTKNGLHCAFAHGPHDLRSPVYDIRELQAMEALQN
# PROTOCOL_DETAILS: nsRBNS (natural sequence RNA bind-n-seq); RBNS binding buffer (assumed for nsRBNS): 25 mM Tris pH 7.5, 150 mM KCl, 3 mM MgCl2, 0.01% Triton X-100, 500 ug/ml BSA, 20 U/ml SUPERase-In, 4 C; UNK is unkempt and MSI1 is Musashi-1; names of the RNAs are library labels; protein concentration not given here; high values mean tight binding
Whole data set: some 24,000 sequences, median “enrichment r” near 0.99, cut for the highest 2% near 3.7. This is one part of a sample in which the highest values are shown more often than they occur.

BINDER	UNIT_INFO	binding signal
chr14:78183846:78183847:+_ENSG00000119705_ENST00000557342|hu_hu|hu_hu_hu_mus_False|58_98 (ssRNA) RNA: GGGAGUUCUACAGUCCGACGAUCUCUCAGAAAUCUUUCUUUCUUUUAUGUUUGAGCUCCGUGCAAAGCCUUUGCUCUUCUAGUGUGAACGUGGAUCUAUGGGAGGGAAAGCACUGUCAGAAAAGGUAAUUUUUUUUUUAAAGACAACAGAGGAUUGAGCAUCA	enrichment R	1.14
chr2:48026839:48026840:+_ENSG00000116062_ENST00000540021|hu_hu|hu_hu_hu_mus_False|28_88 (ssRNA) RNA: GGGAGUUCUACAGUCCGACGAUCAUAGUGAGCCACUAGCGUCCUAAAUCUCGAACAGUGGCGGUCAUCCGAAAACUGGCCGAUGAAAAACUUGCCCAGUGAAGUGUCAACAAAGCAAACACCAUACACACGAGUGUGACCAGACAACAGAGGAUUGAGCAUCA	enrichment R	1.25
chr2:160775391:160775392:-_ENSMUSG00000057133_ENSMUST00000039782|mus_hu|motif|central (ssRNA) RNA: GGGAGUUCUACAGUCCGACGAUCAAUGAGUCCAGGAGAUACUCCUGGGAUGAGAAAUGGGUUAAAAGCCACAGGACGGCGGGUAGUUAUUGCAGGUUCAGACUGAUCAGAAAAUGGACCUGGACCAGGCUUGUCCUCAGCUAACAACAGAGGAUUGAGCAUCA	enrichment R	1.1
